Target: GOPC, Q9HD26
Test: holdup assay
Parameters: key: below the threshold = too weak to quantify, mostly under pKd 3.1 to 4
Settings: plain residues with an end cap or a label only (N-terminal biotin on a linker: ado-ado)
quantity-name: pKd

binder="RSSGGDDFWF [KCNV1, Q6PIU1]" assay_value="below the threshold"
binder="NTLNRKTTPV [CACNG8, Q8WXS5]" assay_value=3.72
binder="LPAVCYDIDI [PTTG2, Q9NZH5]" assay_value="below the threshold"
binder="IDESKKEWLI [CNTNAP2, Q9UHC6]" assay_value="below the threshold"
binder="LAHVKHKEQI [AQP3, Q92482]" assay_value="below the threshold"
binder="PPGKHLVTEV [KCNA7, Q96RP8]" assay_value=3.68
binder="KRPEMTSSSV [MUC3B, MUC3A, Q02505;Q9H195]" assay_value=3.96
binder="EKCGKEFSEF [PRKACA, P17612]" assay_value="below the threshold"

The values you see were collected from paper PMC9482650.
